Assign Hill slope to each entry below.
# SYSTEM NAME: SARS-CoV-2 NSP3 macrodomain (Mac1) (Severe acute respiratory syndrome coronavirus 2)
# EXPERIMENTAL PROTOCOL: biochemical
# Format: binding
# ASSAY SETUP: SARS CoV-2 macrodomain HTRF assay, dose-response
The reply should be a number, written without any unit.

input: What does the data say about its Hill slope? Entry: `CC(C)(O)[C@H]1CCCN1c1ncnc2[nH]ccc12`
output: 1.5

input: Reported Hill slope, molecule OCC(Nc1ncnc2[nH]ccc12)C1CC1 (stereo not drawn) : ____
output: 1.2

input: Which value of Hill slope has been reported for `CN(CC1(O)CCOCC1)c1ncnc2[nH]ccc12` in the records?
output: 1.2

input: Look up Hill slope for this molecule: `OC1(CNc2ncnc3[nH]ccc23)CCCCC1`
output: 1.1

input: What value of Hill slope has been recorded for this entry: CC1CCC(O)(CNc2ncnc3[nH]ccc23)CC1 (stereo not drawn)
output: 1.2

input: Field request: Hill slope | item: OCC1C=CCCN1c1ncnc2[nH]ccc12 (stereo not drawn)
output: 1.2

input: Requested field: Hill slope. Item: OC1(CNc2ncnc3[nH]ccc23)CCCC(C(F)(F)F)C1 (stereo not drawn)
output: 1.4

input: # lookup: Hill slope of O=S1(=O)CCCC(O)(CNc2ncnc3[nH]ccc23)C1 (stereo not drawn)
output: 1.2

input: Dear colleague, I am looking for the recorded Hill slope of the following molecule: CC(Nc1ncnc2[nH]ccc12)C1(O)CCCCC1 (stereo not drawn)
output: 1.2

input: What value of Hill slope has been reported for the following molecule? `O=C(O)C(F)(F)F.OCC1(Nc2ncnc3[nH]ccc23)CCCC1`
output: 1.3

input: Field request: Hill slope | item: `Cc1c[nH]c2ncnc(NCC3(O)CCOCC3)c12`
output: 1.3

input: I am curious: what Hill slope value has been reported for CC(C)(O)C1C2CCCCC2CN1c1ncnc2[nH]ccc12 (stereo not drawn) ?
output: 1.3

input: Consider the molecule shown here: OC1(CNc2ncnc3[nH]ccc23)COC2CC1C2 (stereo not drawn) What is its recorded Hill slope?
output: 1.2

input: What value of Hill slope has been reported for the following molecule? `OC1(CNc2ncnc3[nH]ccc23)CCC2(CC1)OCCO2`
output: 1.2

input: Looking for the measured Hill slope of `C[C@H]1CC[C@H](CO)N(c2ncnc3[nH]ccc23)C1` , can you help?
output: 1.1

input: What measured Hill slope goes with `CC1(C)C[C@@H](CO)N(c2ncnc3[nH]ccc23)C1.O=C(O)C(F)(F)F` ?
output: 1.1

input: Record request: Hill slope value, item CC1CCCC(O)(CNc2ncnc3[nH]ccc23)C1 (stereo not drawn)
output: 1.0

input: What does the data say about its Hill slope? Entry: `C[C@@H]1CCN(c2ncnc3[nH]ccc23)[C@H](CO)C1`
output: 1.2

input: I would be grateful if you could share the reported Hill slope for `Cc1c[nH]c2ncnc(NCC3(O)CCSCC3)c12` .
output: 1.2

input: Quick one: Hill slope for OC1(CNc2ncnc3[nH]ccc23)CC2CCC1CC2 (stereo not drawn) ?
output: 1.1

input: Look up Hill slope for this molecule: `O[C@H]1CC[C@@H]2CCN(c3ncnc4[nH]ccc34)[C@@H]21`
output: 1.2

input: What measured Hill slope goes with `OC1(CNc2ncnc3[nH]ccc23)CCC(F)(F)CC1` ?
output: 1.2

input: Please look up its Hill slope: `OC[C@@H]1C[C@@H]2CCC[C@@H]2N1c1ncnc2[nH]ccc12`
output: 1.2

input: # lookup: Hill slope of `OC1(CNc2ncnc3[nH]ccc23)CCOCC1`
output: 1.2

input: Record request: Hill slope value, item `O=C(O)C(F)(F)F.OC[C@H](Cc1ccc(O)cc1)Nc1ncnc2[nH]ccc12`
output: 1.1

input: Using the record for OC1(CNc2ncnc3[nH]ccc23)CCCOC1 (stereo not drawn) , report its Hill slope.
output: 1.4

input: So what does the record say about Hill slope for OCC1CCC2(CCOCC2)CN1c1ncnc2[nH]ccc12 (stereo not drawn) ?
output: 1.2

input: Can you share its Hill slope? I mean this molecule: `CC(C)(CO)Nc1ncnc2[nH]ccc12`
output: 1.1

input: Please look up its Hill slope: `O[C@H]1CC[C@H]2CCN(c3ncnc4[nH]ccc34)[C@H]21`
output: 1.2

input: Entry CC1(C)CCN(c2ncnc3[nH]ccc23)C(CO)C1 (stereo not drawn) has what Hill slope?
output: 1.2

input: Could you tell me which Hill slope is on file for `O=C(O)C(F)(F)F.OCC1(Nc2ncnc3[nH]ccc23)CCC1` ?
output: 1.2

input: Value lookup for Hill slope; key = CC(O)C1CCCN1c1ncnc2[nH]ccc12 (stereo not drawn)
output: 1.1

input: Name the recorded Hill slope for OCC1C2CCC(C2)N1c1ncnc2[nH]ccc12 (stereo not drawn) .
output: 1.1

input: Need Hill slope, item `CC1(C)CCC(O)(CNc2ncnc3[nH]ccc23)CC1`
output: 1.3

input: Reported Hill slope, molecule CCC(O)[C@H]1CCCN1c1ncnc2[nH]ccc12 (stereo partly drawn) : ____
output: 1.3

input: Need Hill slope, item `O=C(O)C(F)(F)F.OC1([C@H]2CCCN2c2ncnc3[nH]ccc23)Cc2ccccc2C1`
output: 1.1

input: I have this molecule here, CC(c1ccccc1)C(CO)Nc1ncnc2[nH]ccc12 (stereo not drawn) , and I need its recorded Hill slope.
output: 1.2

input: Any idea what its Hill slope is? The molecule is `Cc1c[nH]c2ncnc(NCC3(O)CCC(C)(C)CC3)c12`
output: 1.3

input: What value of Hill slope has been reported for the following molecule? CC(C)(O)C1C2CCC2CN1c1ncnc2[nH]ccc12 (stereo not drawn)
output: 1.2

These measurements were taken from paper PMC12118597.
